Field: IC50. Provide a value for each of the compounds that follow.
- Test system: IEC-6 cytotoxicity, ATP luminescence
- Experiment Notes: cytotoxicity in IEC-6 intestinal cells, late-stage follow-up, cytotoxicity control for KLF5 inhibitor project, cell-based, luminescence, dose response, round 1 (AID 434956)
The source made the active and inactive calls. The rule behind the calls is not given here.

Reference set (2 entries):
| Smiles Structure | Result |
| --- | --- |
| CC(C)(C)c1ccc(-c2noc(CCC(=O)Nc3ccccn3)n2)cc1 | > 39.8 µM (inactive) |
| COc1ccc(-n2nc3cc(C)c(NC(=O)C(C)C)cc3n2)cc1 | > 39.8 µM (inactive) |

Noted for `COc1ccc(-n2nc3ccc(NC(=O)C(C)(C)C)cc3n2)cc1` : its IC50 reads > 39.8 µM (inactive)

====

- Tested on: IEC-6 cytotoxicity, ATP luminescence
- Experiment Notes: cytotoxicity in IEC-6 intestinal cells, late-stage follow-up, cytotoxicity control for KLF5 inhibitor project, cell-based, luminescence, dose response, round 1 (AID 434956)
Activity calls are given as the source filed them. The rule behind the calls is not given here.
Value Type: IC50

Reference set (2 entries):
| Smiles Structure | Result |
| --- | --- |
| Cc1ccc(-n2nc3cc(Cl)c(NC(=O)c4cccnc4)cc3n2)cc1 | 17.8 µM (inactive) |
| CC(=O)Nc1ccc2nc(Nc3nc4ccc(F)cc4s3)sc2c1 | 14.7 µM (inactive) |

// next entry
Noted for `CC(C)(C)c1ccc(-c2noc(CCC(=O)NCc3ccccc3)n2)cc1` : its IC50 reads 24.1 µM (inactive)
